// reported self-splicing fitness (ln) for each item listed
test: self-splicing fitness, log relative to wild type (ln ratio); higher = more splicing; Tetrahymena group I intron in knt gene, E. coli kanamycin selection, DiMSum; sequences stand for … in CUCUCU…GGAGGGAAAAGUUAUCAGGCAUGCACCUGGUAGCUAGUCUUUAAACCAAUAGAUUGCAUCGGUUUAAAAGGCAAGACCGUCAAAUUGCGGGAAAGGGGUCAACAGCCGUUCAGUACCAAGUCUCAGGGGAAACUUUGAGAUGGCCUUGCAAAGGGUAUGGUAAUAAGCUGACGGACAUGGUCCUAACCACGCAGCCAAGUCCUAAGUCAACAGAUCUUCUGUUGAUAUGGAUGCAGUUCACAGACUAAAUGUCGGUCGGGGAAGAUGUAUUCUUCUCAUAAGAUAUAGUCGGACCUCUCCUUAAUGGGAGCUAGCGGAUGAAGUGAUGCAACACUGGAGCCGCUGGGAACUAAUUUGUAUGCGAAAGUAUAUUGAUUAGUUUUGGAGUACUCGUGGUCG; conditions: 30 °C;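 also: selection with 25 µg/mL kanamycin versus none on LB agar overnight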
Number only, no unit.

The examples below pair each entry with its known result.
>  <Sequence Entry>
GGGUAGCAAUAUUACGUGGA

>  <Metric>
self-splicing fitness (ln)

>  <Measured Result>
-3.45

$$$$
>  <Sequence Entry>
GAUAAGCAAUAUUACGUAAC

>  <Metric>
self-splicing fitness (ln)

>  <Measured Result>
-1.22

$$$$
>  <Sequence Entry>
GCCAAGCAAUAUUACGCUCA

>  <Metric>
self-splicing fitness (ln)

>  <Measured Result>
-0.458

$$$$
>  <Sequence Entry>
ACAUAGCAAUAUUACGCCAU

>  <Metric>
self-splicing fitness (ln)

>  <Measured Result>
-3.25

$$$$
>  <Sequence Entry>
ACUAAGCAAUAUUACGUAGA

>  <Metric>
self-splicing fitness (ln)

>  <Measured Result>
-3.25

$$$$

In: Consider the sequence shown here: CGGAAGCAAUAUUACGGGCG What is its recorded self-splicing fitness (ln)?
Out: -0.796

In: Consider the sequence shown here: GCGAAGCAAUAUUACGAGCA What is its recorded self-splicing fitness (ln)?
Out: -1.52

In: Consider the sequence shown here: UUUAAGCAAUAUUACGCUCC What is its recorded self-splicing fitness (ln)?
Out: -2.1
